Where do these numbers come from? They come from PubChem BioAssay AID1963426.

test system: 186277-243-T-J2-PDC complex spheroid growth, % test/control; assay: Anticancer human tumor 186277-243-T-J2-PDC patient-derived colon adenocarcinoma cell line growth inhibition [Asc]; details: second compound 1 µM; first compound 0.316 µM; stronger effect = lower value
Under this convention, MET denotes viability, T/C strictly below 20% and NOT MET denotes viability, T/C at or above 20%.

molecule	system.tested	label.value
CCN1CCN(Cc2ccc(Nc3ncc(F)c(-c4cc(F)c5nc(C)n(C(C)C)c5c4)n3)nc2)CC1 + Cc1c(S(C)(=O)=O)c(-c2cc(F)cc(N3CCN(c4ccc(NS(=O)(=O)c5ccc(NC(CCN6CCC(C(=O)OCCCP(=O)(O)O)CC6)CSc6ccccc6)c(S(=O)(=O)C(F)(F)F)c5)cc4)CC3)c2)c(-c2ccc(Cl)cc2)n1C(C)C	186277-243-T-J2-PDC complex spheroid growth, % test/control	NOT MET
O=C(c1cc(Cc2n[nH]c(=O)c3ccccc23)ccc1F)N1CCN(C(=O)C2CC2)CC1 + Cc1c(S(C)(=O)=O)c(-c2cc(F)cc(N3CCN(c4ccc(NS(=O)(=O)c5ccc(NC(CCN6CCC(C(=O)OCCCP(=O)(O)O)CC6)CSc6ccccc6)c(S(=O)(=O)C(F)(F)F)c5)cc4)CC3)c2)c(-c2ccc(Cl)cc2)n1C(C)C	186277-243-T-J2-PDC complex spheroid growth, % test/control	NOT MET
O=C(c1ccc(F)c(F)c1Nc1ccc(I)cc1F)N1CC(O)([C@@H]2CCCCN2)C1 + CNC(C)C(=O)NC1CN(S(=O)(=O)c2cccc(S(=O)(=O)N3CCC4CCC(C(=O)NC(c5ccccc5)c5ccccc5)N4C(=O)C(NC(=O)C(C)NC)C3)c2)CCC2CCC(C(=O)NC(c3ccccc3)c3ccccc3)N2C1=O	186277-243-T-J2-PDC complex spheroid growth, % test/control	MET
COc1c(OCCCN2CCOCC2)ccc2c3n(c(=NC(=O)c4cnc(N)nc4)nc12)CCN3 + CNC(C)C(=O)NC1CN(S(=O)(=O)c2cccc(S(=O)(=O)N3CCC4CCC(C(=O)NC(c5ccccc5)c5ccccc5)N4C(=O)C(NC(=O)C(C)NC)C3)c2)CCC2CCC(C(=O)NC(c3ccccc3)c3ccccc3)N2C1=O	186277-243-T-J2-PDC complex spheroid growth, % test/control	NOT MET
COc1c(OCCCN2CCOCC2)ccc2c3n(c(=NC(=O)c4cnc(N)nc4)nc12)CCN3 + Cc1c(S(C)(=O)=O)c(-c2cc(F)cc(N3CCN(c4ccc(NS(=O)(=O)c5ccc(NC(CCN6CCC(C(=O)OCCCP(=O)(O)O)CC6)CSc6ccccc6)c(S(=O)(=O)C(F)(F)F)c5)cc4)CC3)c2)c(-c2ccc(Cl)cc2)n1C(C)C	186277-243-T-J2-PDC complex spheroid growth, % test/control	MET
C#Cc1c(F)ccc2cc(O)cc(-c3ncc4c(N5CC6CCC(C5)N6)nc(OCC56CCCN5CC(F)C6)nc4c3F)c12 (centres undefined) + Cc1c(S(C)(=O)=O)c(-c2cc(F)cc(N3CCN(c4ccc(NS(=O)(=O)c5ccc(NC(CCN6CCC(C(=O)OCCCP(=O)(O)O)CC6)CSc6ccccc6)c(S(=O)(=O)C(F)(F)F)c5)cc4)CC3)c2)c(-c2ccc(Cl)cc2)n1C(C)C	186277-243-T-J2-PDC complex spheroid growth, % test/control	MET
C=C(F)C(=O)N1CCN(c2nc(OCC3CCCN3C)nc3c2CCN(c2cccc4cccc(Cl)c24)C3)CC1CC#N (centres undefined) + CNC(C)C(=O)NC1CN(S(=O)(=O)c2cccc(S(=O)(=O)N3CCC4CCC(C(=O)NC(c5ccccc5)c5ccccc5)N4C(=O)C(NC(=O)C(C)NC)C3)c2)CCC2CCC(C(=O)NC(c3ccccc3)c3ccccc3)N2C1=O	186277-243-T-J2-PDC complex spheroid growth, % test/control	NOT MET
O=C(c1cc(Cc2n[nH]c(=O)c3ccccc23)ccc1F)N1CCN(C(=O)C2CC2)CC1 + CNC(C)C(=O)NC1CN(S(=O)(=O)c2cccc(S(=O)(=O)N3CCC4CCC(C(=O)NC(c5ccccc5)c5ccccc5)N4C(=O)C(NC(=O)C(C)NC)C3)c2)CCC2CCC(C(=O)NC(c3ccccc3)c3ccccc3)N2C1=O	186277-243-T-J2-PDC complex spheroid growth, % test/control	NOT MET
C=C(F)C(=O)N1CCN(c2nc(OCC3CCCN3C)nc3c2CCN(c2cccc4cccc(Cl)c24)C3)CC1CC#N (centres undefined) + Cc1c(S(C)(=O)=O)c(-c2cc(F)cc(N3CCN(c4ccc(NS(=O)(=O)c5ccc(NC(CCN6CCC(C(=O)OCCCP(=O)(O)O)CC6)CSc6ccccc6)c(S(=O)(=O)C(F)(F)F)c5)cc4)CC3)c2)c(-c2ccc(Cl)cc2)n1C(C)C	186277-243-T-J2-PDC complex spheroid growth, % test/control	NOT MET

* * *

system: 186277-243-T-J2-PDC complex spheroid growth, % test/control; assay: Anticancer human tumor 186277-243-T-J2-PDC cell line growth inhibition [Asc]; settings: curve of first compound; second compound 3.16 µM;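 also: spheroids exposed to agents for 7 days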

molecule	modifier.sign	IC50 (nM)
Cn1ncnc1[C@H]1c2n[nH]c(=O)c3cc(F)cc(c23)N[C@@H]1c1ccc(F)cc1 + Cc1c(S(C)(=O)=O)c(-c2cc(F)cc(N3CCN(c4ccc(NS(=O)(=O)c5ccc(NC(CCN6CCC(C(=O)OCCCP(=O)(O)O)CC6)CSc6ccccc6)c(S(=O)(=O)C(F)(F)F)c5)cc4)CC3)c2)c(-c2ccc(Cl)cc2)n1C(C)C	>	100
CCN1C(C(=O)NC23CCC(C(=O)O)(CC2)CC3)C(c2cccc(Cl)c2F)C2(C(=O)Nc3cc(Cl)ccc32)C12CCCCC2 (configuration not stated) + Cc1c(S(C)(=O)=O)c(-c2cc(F)cc(N3CCN(c4ccc(NS(=O)(=O)c5ccc(NC(CCN6CCC(C(=O)OCCCP(=O)(O)O)CC6)CSc6ccccc6)c(S(=O)(=O)C(F)(F)F)c5)cc4)CC3)c2)c(-c2ccc(Cl)cc2)n1C(C)C	=	110
CNC(C)C(=O)NC1CN(S(=O)(=O)c2cccc(S(=O)(=O)N3CCC4CCC(C(=O)NC(c5ccccc5)c5ccccc5)N4C(=O)C(NC(=O)C(C)NC)C3)c2)CCC2CCC(C(=O)NC(c3ccccc3)c3ccccc3)N2C1=O (configuration not stated) + Cc1c(S(C)(=O)=O)c(-c2cc(F)cc(N3CCN(c4ccc(NS(=O)(=O)c5ccc(NC(CCN6CCC(C(=O)OCCCP(=O)(O)O)CC6)CSc6ccccc6)c(S(=O)(=O)C(F)(F)F)c5)cc4)CC3)c2)c(-c2ccc(Cl)cc2)n1C(C)C	>	1000
NC1CCC(NC2CC2c2ccccc2)CC1 (configuration not stated) + Cc1c(S(C)(=O)=O)c(-c2cc(F)cc(N3CCN(c4ccc(NS(=O)(=O)c5ccc(NC(CCN6CCC(C(=O)OCCCP(=O)(O)O)CC6)CSc6ccccc6)c(S(=O)(=O)C(F)(F)F)c5)cc4)CC3)c2)c(-c2ccc(Cl)cc2)n1C(C)C	>	100
C=CC(=O)N1CCN(c2nc(=O)n(-c3c(C)ccnc3C(C)C)c3nc(-c4c(O)cccc4F)c(F)cc23)C(C)C1 (configuration not stated) + Cc1c(S(C)(=O)=O)c(-c2cc(F)cc(N3CCN(c4ccc(NS(=O)(=O)c5ccc(NC(CCN6CCC(C(=O)OCCCP(=O)(O)O)CC6)CSc6ccccc6)c(S(=O)(=O)C(F)(F)F)c5)cc4)CC3)c2)c(-c2ccc(Cl)cc2)n1C(C)C	>	10000
O=C(c1ccc(F)c(F)c1Nc1ccc(I)cc1F)N1CC(O)([C@@H]2CCCCN2)C1 + Cc1c(S(C)(=O)=O)c(-c2cc(F)cc(N3CCN(c4ccc(NS(=O)(=O)c5ccc(NC(CCN6CCC(C(=O)OCCCP(=O)(O)O)CC6)CSc6ccccc6)c(S(=O)(=O)C(F)(F)F)c5)cc4)CC3)c2)c(-c2ccc(Cl)cc2)n1C(C)C	=	57.8
COc1c(OCCCN2CCOCC2)ccc2c3n(c(=NC(=O)c4cnc(N)nc4)nc12)CCN3 + Cc1c(S(C)(=O)=O)c(-c2cc(F)cc(N3CCN(c4ccc(NS(=O)(=O)c5ccc(NC(CCN6CCC(C(=O)OCCCP(=O)(O)O)CC6)CSc6ccccc6)c(S(=O)(=O)C(F)(F)F)c5)cc4)CC3)c2)c(-c2ccc(Cl)cc2)n1C(C)C	=	27.2

* * *

system: 186277-243-T-J2-PDC complex spheroid growth, % test/control; assay: Anticancer human tumor 186277-243-T-J2-PDC cell line growth inhibition [Asc]; details: second compound 0.0316 µM; first compound 10 µM; stronger effect = lower value;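 also: spheroids exposed to agents for 7 days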;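 as to viability, T/C: 100% = DMSO vehicle control wells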

molecule	system.tested	viability, T/C, %
O=C(c1cc(Cc2n[nH]c(=O)c3ccccc23)ccc1F)N1CCN(C(=O)C2CC2)CC1 + CNC(C)C(=O)NC1CN(S(=O)(=O)c2cccc(S(=O)(=O)N3CCC4CCC(C(=O)NC(c5ccccc5)c5ccccc5)N4C(=O)C(NC(=O)C(C)NC)C3)c2)CCC2CCC(C(=O)NC(c3ccccc3)c3ccccc3)N2C1=O	186277-243-T-J2-PDC complex spheroid growth, % test/control	156
C=C(F)C(=O)N1CCN(c2nc(OCC3CCCN3C)nc3c2CCN(c2cccc4cccc(Cl)c24)C3)CC1CC#N (centres undefined) + CNC(C)C(=O)NC1CN(S(=O)(=O)c2cccc(S(=O)(=O)N3CCC4CCC(C(=O)NC(c5ccccc5)c5ccccc5)N4C(=O)C(NC(=O)C(C)NC)C3)c2)CCC2CCC(C(=O)NC(c3ccccc3)c3ccccc3)N2C1=O	186277-243-T-J2-PDC complex spheroid growth, % test/control	28.2
C=CC(=O)N1CCN(c2nc(=O)n(-c3c(C)ccnc3C(C)C)c3nc(-c4c(O)cccc4F)c(F)cc23)C(C)C1 (centres undefined) + CNC(C)C(=O)NC1CN(S(=O)(=O)c2cccc(S(=O)(=O)N3CCC4CCC(C(=O)NC(c5ccccc5)c5ccccc5)N4C(=O)C(NC(=O)C(C)NC)C3)c2)CCC2CCC(C(=O)NC(c3ccccc3)c3ccccc3)N2C1=O	186277-243-T-J2-PDC complex spheroid growth, % test/control	108
C#Cc1c(F)ccc2cc(O)cc(-c3ncc4c(N5CC6CCC(C5)N6)nc(OCC56CCCN5CC(F)C6)nc4c3F)c12 (centres undefined) + CNC(C)C(=O)NC1CN(S(=O)(=O)c2cccc(S(=O)(=O)N3CCC4CCC(C(=O)NC(c5ccccc5)c5ccccc5)N4C(=O)C(NC(=O)C(C)NC)C3)c2)CCC2CCC(C(=O)NC(c3ccccc3)c3ccccc3)N2C1=O	186277-243-T-J2-PDC complex spheroid growth, % test/control	9.61
